assay: Pharmacokinetics in SD (Sprague Dawley) rats; assay type: in vivo; conditions: rat, plasma, iv, female SD rats, i.v. 1 mg/kg
quantity: AUC(0-inf) (µg·h/mL)
Give bare numbers, in µg·h/mL.

## Task Given COc1ccc2c(c1S(=O)(=O)Nc1noc3cc(Cn4cccn4)c(F)c(OC)c13)OCCC2(F)F , state its recorded AUC(0-inf).
## Result 4.2

Would you be so kind as to report AUC(0-inf) for each listed record?
1. COc1ccc2c(c1S(=O)(=O)Nc1noc3cc(Cn4cccn4)c(F)c(OC)c13)OCCC2=O
2. COc1ccccc1S(=O)(=O)Nc1noc2cc(Cn3cccn3)cc(OC)c12 [PF-8144, reference compound]
3. COc1ccc2c(c1S(=O)(=O)Nc1noc3cc(Cn4cccn4)c(F)c(OC)c13)OCCCN2C

## Result
1. 10.2
2. 28.3
3. 47.5

---

Experiment: Pharmacokinetics in SD (Sprague Dawley) rats
Assay type: in vivo
Conditions: rat, plasma, po, female SD rats, p.o. 2 mg/kg
Protocol: Test Example 3: Determination of Pharmacokinetic Data of Compounds in SD (Sprague Dawley) Rats The pharmacokinetic characteristics of some of the compounds of the present disclosure were evaluated by a pharmacokinetic experiment in SD rats. Female SD rats aged 6-8 weeks from Shanghai Jihui Laboratory Animal Care Co., Ltd. were selected. […] The concentration of the corresponding test compound in the SD rat plasma was determined using UPLC-MS/MS.
quantity: AUC(0-inf) (ng·h/mL)
One number for each entry, in ng·h/mL.

## Task Given COc1ccc2c(c1S(=O)(=O)Nc1noc3cc(Cn4cccn4)c(F)c(OC)c13)OCCCO2 [Compound 114] , state its recorded AUC(0-inf).
## Result 97900

## Task Same for COc1ccc2c(c1S(=O)(=O)Nc1noc3cc(Cn4cccn4)c(F)c(OC)c13)OCC=C2 [Compound 101]
## Result 89100

## Task Same for COc1ccc2c(c1S(=O)(=O)Nc1noc3cc(Cn4cccn4)c(F)c(OC)c13)OCCC2(F)F [Compound 104]
## Result 6110

## Task Same for COc1ccccc1S(=O)(=O)Nc1noc2cc(Cn3cccn3)cc(OC)c12 [PF-8144, reference compound]
## Result 55500

Would you be so kind as to report AUC(0-inf) for each listed record?
1. COc1ccc2c(c1S(=O)(=O)Nc1noc3cc(Cn4cccn4)c(F)c(OC)c13)OCCC2=O [Compound 42]
2. COc1ccc2c(c1S(=O)(=O)Nc1noc3cc(Cn4cccn4)c(F)c(OC)c13)OCCO2 [Compound 28]
3. COc1ccc2c(c1S(=O)(=O)Nc1noc3cc(Cn4cccn4)c(F)c(OC)c13)OCCCN2C [Compound 115]
4. COc1ccc2c(c1S(=O)(=O)Nc1noc3cc(Cn4cccn4)c(F)c(OC)c13)OCCN2C [Compound 109]

## Result
11300
42800
109000
187000

---

target: KAT5 (Homo sapiens); construct: purchased BPS 79422; experiment: Inhibition of human KAT enzymes, radioisotope method: KAT5; assay type: biochemical; settings: selectivity, ratio of Ki
Sequence (Q92993 whole entry): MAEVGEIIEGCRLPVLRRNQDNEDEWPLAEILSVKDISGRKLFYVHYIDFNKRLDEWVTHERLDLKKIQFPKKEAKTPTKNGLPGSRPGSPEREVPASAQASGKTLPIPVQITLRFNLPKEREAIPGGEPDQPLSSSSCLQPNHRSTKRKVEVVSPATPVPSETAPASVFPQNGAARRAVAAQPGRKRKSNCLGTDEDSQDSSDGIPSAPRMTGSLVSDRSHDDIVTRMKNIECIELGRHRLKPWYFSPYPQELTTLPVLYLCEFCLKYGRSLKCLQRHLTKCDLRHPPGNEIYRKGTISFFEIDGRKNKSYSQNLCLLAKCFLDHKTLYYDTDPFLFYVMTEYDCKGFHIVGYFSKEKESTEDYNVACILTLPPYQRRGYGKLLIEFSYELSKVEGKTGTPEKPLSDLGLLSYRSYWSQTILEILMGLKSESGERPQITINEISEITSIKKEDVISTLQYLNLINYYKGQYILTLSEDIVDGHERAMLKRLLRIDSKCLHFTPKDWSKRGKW
Hi there, I'd appreciate the recorded KAT5/ KAT6B for every entry that follows.
Give bare numbers.

## Task Given COc1ccc2c(c1S(=O)(=O)Nc1noc3cc(Cn4cccn4)c(F)c(OC)c13)OCCCO2 , state its recorded KAT5/ KAT6B.
## Result 745

## Task Same for COc1ccccc1S(=O)(=O)Nc1noc2cc(Cn3cccn3)cc(OC)c12 [PF-8144, reference compound]
## Result 130

Would you be so kind as to report KAT5/ KAT6B for each listed record?
1. COc1ccc2c(c1S(=O)(=O)Nc1noc3cc(Cn4cccn4)c(F)c(OC)c13)OCCN2C
2. COc1ccc2c(c1S(=O)(=O)Nc1noc3cc(Cn4cccn4)c(F)c(OC)c13)OCCN2S(C)(=O)=O

## Result
1: 318; 2: 641

Would you be so kind as to report KAT5/ KAT6B for each listed record?
1. COc1ccc2c(c1S(=O)(=O)Nc1noc3cc(Cn4cccn4)c(F)c(OC)c13)OCCCN2C
2. COc1ccc2c(c1S(=O)(=O)Nc1noc3cc(Cn4cccn4)c(F)c(OC)c13)OCCN2C(C)=O
3. COc1ccc2c(c1S(=O)(=O)Nc1noc3cc(Cn4cccn4)c(F)c(OC)c13)OCCO2
4. COc1ccc2c(c1S(=O)(=O)Nc1noc3cc(Cn4cccn4)c(F)c(OC)c13)OCC=C2

## Result
1: 778; 2: 719; 3: 721; 4: 122
